Data origin, for the record: patent US4451463A

- Experimental protocol: LD50 in mice, dosed intravenously
- Study conditions: mouse, in vivo, iv
Parameter measured: LD50

Please fill in: LD50 reported for NC(=NCC(F)(F)F)Nc1ccnc(OCCCO)n1 [Example 1] = ~30 mg/kg
